- REPORTED CONDITIONS: human, plasma, Flag (half-life, assay exceeded)
OBSERVATION TYPE: half-life

Query Ac-PSRLEEELRRRLTE-NH2 [SD14316] yields half-life of > 6 h

###

- REPORTED CONDITIONS: mouse, in vivo, iv, 10 mg/kg
OBSERVATION TYPE: Tmax (min)
All answers are understood in min, so give the number only.

In plain terms, Ac-PSRLEEELRRRLTE-NH2 [SD14316] has a documented Tmax of 5

###

- REPORTED CONDITIONS: mouse, plasma
OBSERVATION TYPE: half-life (h)
Respond numerically; units are h and should not be typed.

The measured half-life associated with Ac-PSRLEEELRRRLTE-NH2 [SD14316] reads 3.8

###

- ASSAY SUMMARY: Plasma stability, mouse plasma
- REPORTED CONDITIONS: Balb C, mouse, Li-heparin plasma
Bridge positions count the residues as written; N and C are the ends. Square brackets hold non-standard residues; d marks the D form. Peptide text beside a SMILES is read from it.
OBSERVATION TYPE: remaining at 6 h, 10 µM (%)
// return numeric value only (unit: %, not printed)

Quick note, remaining at 6 h, 10 µM for CC(=O)N[C@@H](CO)C(=O)N[C@@H](CCCNC(=N)N)C(=O)N[C@@H](CC(C)C)C(=O)N[C@@H](CCC(=O)O)C(=O)N[C@@H](CCC(=O)O)C(=O)N[C@@H](CCC(=O)O)C(=O)N[C@@H](CC(C)C)C(=O)N[C@@H](CCCNC(=N)N)C(=O)N[C@H]1CCCCNC(=O)CC[C@@H](C(N)=O)NC(=O)[C@H]([C@@H](C)O)NC(=O)[C@H](CC(C)C)NC(=O)[C@H](CCCNC(=N)N)NC1=O [SD15193] (Ac-SRLEEELRKRLTE-NH2; lactam 9-13) landed at 72.7

// sample CC(=O)N1CCC[C@H]1C(=O)N[C@@H](CO)C(=O)N[C@@H](CCCNC(=N)N)C(=O)N[C@@H](CC(C)C)C(=O)N[C@@H](CCC(=O)O)C(=O)N[C@H]1CCCCNC(=O)CC[C@@H](C(=O)N[C@@H](CCCNC(=N)N)C(=O)N[C@@H](CC(C)C)C(=O)N[C@H](C(=O)N[C@@H](CCC(=O)O)C(N)=O)[C@@H](C)O)NC(=O)[C@H](CCCNC(=N)N)NC(=O)[C@H](CC(C)C)NC(=O)[C@H](CCC(=O)O)NC1=O [SD15805] (Ac-PSRLEKELRERLTE-NH2; lactam 6-10) , its remaining at 6 h, 10 µM was 53.8

Lab note: CC(=O)N1CCC[C@H]1C(=O)N[C@@H](CO)C(=O)N[C@@H](CCCNC(=N)N)C(=O)N[C@@H](CC(C)C)C(=O)N[C@H]1CCC(=O)NCCCC[C@@H](C(=O)N[C@@H](CCCNC(=N)N)C(=O)N[C@@H](CCCNC(=N)N)C(=O)N[C@@H](CC(C)C)C(=O)N[C@H](C(=O)N[C@@H](CCC(=O)O)C(N)=O)[C@@H](C)O)NC(=O)[C@H](CC(C)C)NC(=O)[C@H](CCC(=O)O)NC(=O)[C@H](CCC(=O)O)NC1=O [SD15806] (Ac-PSRLEEELKRRLTE-NH2; lactam 5-9) gave remaining at 6 h, 10 µM of 73.7

So for CC(=O)N[C@@H](CO)C(=O)N[C@@H](CCCNC(=N)N)C(=O)N[C@@H](CC(C)C)C(=O)N[C@@H](CCC(=O)O)C(=O)N[C@H]1CCC(=O)NCCCC[C@@H](C(=O)N[C@@H](CCCNC(=N)N)C(=O)N[C@@H](CCCNC(=N)N)C(=O)N[C@@H](CC(C)C)C(=O)N[C@H](C(=O)N[C@@H](CCC(=O)O)C(N)=O)[C@@H](C)O)NC(=O)[C@H](CC(C)C)NC(=O)[C@H](CCC(=O)O)NC1=O [SD15192] (Ac-SRLEEELKRRLTE-NH2; lactam 5-8) , the logged remaining at 6 h, 10 µM turned out to be 65.7

What the record says about CC(=O)N[C@@H](CO)C(=O)N[C@@H](CCCNC(=N)N)C(=O)N[C@@H](CC(C)C)C(=O)N[C@@H](CCC(=O)O)C(=O)N[C@H]1CC(=O)NCCCC[C@@H](C(=O)N[C@@H](CCCNC(=N)N)C(=O)N[C@@H](CC(C)C)C(=O)N[C@H](C(=O)N[C@@H](CCC(=O)O)C(N)=O)[C@@H](C)O)NC(=O)[C@H](CCCNC(=N)N)NC(=O)[C@H](CC(C)C)NC(=O)[C@H](CCC(=O)O)NC1=O [SD15196] (Ac-SRLEDELRKRLTE-NH2; lactam 5-9) : remaining at 6 h, 10 µM is 80.5

So for CC(=O)N[C@@H](CO)C(=O)N[C@@H](CCCNC(=N)N)C(=O)N[C@@H](CC(C)C)C(=O)N[C@@H](CCC(=O)O)C(=O)N[C@H]1CCC(=O)NCCCC[C@@H](C(=O)N[C@@H](CCCNC(=N)N)C(=O)N[C@@H](CC(C)C)C(=O)N[C@H](C(=O)N[C@@H](CCC(=O)O)C(N)=O)[C@@H](C)O)NC(=O)[C@H](CCCNC(=N)N)NC(=O)[C@H](CC(C)C)NC(=O)[C@H](CCC(=O)O)NC1=O [SD15194] (Ac-SRLEEELRKRLTE-NH2; lactam 5-9) , the logged remaining at 6 h, 10 µM turned out to be 85.4

Value of measured remaining at 6 h, 10 µM for the entry CC(=O)N1CCC[C@H]1C(=O)N[C@@H](CO)C(=O)N[C@@H](CCCNC(=N)N)C(=O)N[C@@H](CC(C)C)C(=O)N[C@@H](CCC(=O)O)C(=O)N[C@H]1CCC(=O)NCCCC[C@H](C(=O)N[C@@H](CCCNC(=N)N)C(=O)N[C@@H](CC(C)C)C(=O)N[C@H](C(=O)N[C@@H](CCC(=O)O)C(N)=O)[C@@H](C)O)NC(=O)[C@H](CCCNC(=N)N)NC(=O)[C@H](CC(C)C)NC(=O)[C@H](CCC(=O)O)NC1=O [SD15808] (Ac-PSRLEEELR[dK]RLTE-NH2; lactam 6-10) : 61.1

The compound CC(=O)N1CCC[C@H]1C(=O)N[C@@H](CO)C(=O)N[C@@H](CCCNC(=N)N)C(=O)N[C@@H](CC(C)C)C(=O)N[C@@H](CCC(=O)O)C(=O)N[C@H]1CSSC[C@H](C(=O)N[C@@H](CCCNC(=N)N)C(=O)N[C@@H](CCCNC(=N)N)C(=O)N[C@@H](CC(C)C)C(=O)N[C@H](C(=O)N[C@@H](CCC(=O)O)C(N)=O)[C@@H](C)O)NC(=O)[C@H](CC(C)C)NC(=O)[C@H](CCC(=O)O)NC1=O [SD15807] (Ac-PSRLECEL[dC]RRLTE-NH2; disulfide 6-9) showed remaining at 6 h, 10 µM equal to 37
